Target: UniProtKB P22411
Sequence (P22411 whole entry): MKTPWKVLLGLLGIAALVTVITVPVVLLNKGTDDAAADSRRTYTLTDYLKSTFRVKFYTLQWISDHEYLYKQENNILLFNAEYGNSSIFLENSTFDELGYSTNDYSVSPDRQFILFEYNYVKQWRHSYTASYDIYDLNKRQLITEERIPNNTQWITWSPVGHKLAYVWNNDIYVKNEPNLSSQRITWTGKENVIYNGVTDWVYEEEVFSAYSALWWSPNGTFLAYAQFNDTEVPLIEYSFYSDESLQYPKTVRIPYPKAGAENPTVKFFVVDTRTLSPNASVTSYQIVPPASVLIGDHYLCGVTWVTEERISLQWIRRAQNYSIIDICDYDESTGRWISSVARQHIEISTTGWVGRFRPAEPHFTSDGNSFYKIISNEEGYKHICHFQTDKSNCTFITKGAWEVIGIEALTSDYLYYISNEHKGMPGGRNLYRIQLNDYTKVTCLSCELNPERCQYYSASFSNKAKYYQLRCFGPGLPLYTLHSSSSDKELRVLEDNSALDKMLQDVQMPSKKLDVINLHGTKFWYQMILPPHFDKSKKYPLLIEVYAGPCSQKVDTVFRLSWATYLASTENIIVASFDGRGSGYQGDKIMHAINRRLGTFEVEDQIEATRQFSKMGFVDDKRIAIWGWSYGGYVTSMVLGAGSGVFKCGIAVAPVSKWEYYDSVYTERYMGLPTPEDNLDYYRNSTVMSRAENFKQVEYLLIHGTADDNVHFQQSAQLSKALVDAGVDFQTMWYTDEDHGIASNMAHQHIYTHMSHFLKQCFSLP
Assay: Inhibition of porcine kidney DPP4
Peptide text beside a SMILES is read from it.
# key: entry, value: IC50

{"compound": "CC(C)C[C@H](NC(=O)[C@@H](N)CC(C)C)C(=O)N[C@@H](C)C(=O)N1CCC[C@H]1C(=O)O (H-LLAP-OH)", "subject-of-test": "UniProtKB P22411", "assay-value": "43 to 159 µM"}

Proceeding to the next compound to report its IC50.
Entry CC[C@H](C)[C@H](N)C(=O)N[C@@H](CC(C)C)C(=O)N[C@@H](C)C(=O)N1CCC[C@H]1C(=O)O (H-ILAP-OH) has what IC50?
43 to 159 µM

---

Target: Dipeptidyl peptidase 4 (Homo sapiens, UniProt P27487)
Sequence (P27487 whole entry): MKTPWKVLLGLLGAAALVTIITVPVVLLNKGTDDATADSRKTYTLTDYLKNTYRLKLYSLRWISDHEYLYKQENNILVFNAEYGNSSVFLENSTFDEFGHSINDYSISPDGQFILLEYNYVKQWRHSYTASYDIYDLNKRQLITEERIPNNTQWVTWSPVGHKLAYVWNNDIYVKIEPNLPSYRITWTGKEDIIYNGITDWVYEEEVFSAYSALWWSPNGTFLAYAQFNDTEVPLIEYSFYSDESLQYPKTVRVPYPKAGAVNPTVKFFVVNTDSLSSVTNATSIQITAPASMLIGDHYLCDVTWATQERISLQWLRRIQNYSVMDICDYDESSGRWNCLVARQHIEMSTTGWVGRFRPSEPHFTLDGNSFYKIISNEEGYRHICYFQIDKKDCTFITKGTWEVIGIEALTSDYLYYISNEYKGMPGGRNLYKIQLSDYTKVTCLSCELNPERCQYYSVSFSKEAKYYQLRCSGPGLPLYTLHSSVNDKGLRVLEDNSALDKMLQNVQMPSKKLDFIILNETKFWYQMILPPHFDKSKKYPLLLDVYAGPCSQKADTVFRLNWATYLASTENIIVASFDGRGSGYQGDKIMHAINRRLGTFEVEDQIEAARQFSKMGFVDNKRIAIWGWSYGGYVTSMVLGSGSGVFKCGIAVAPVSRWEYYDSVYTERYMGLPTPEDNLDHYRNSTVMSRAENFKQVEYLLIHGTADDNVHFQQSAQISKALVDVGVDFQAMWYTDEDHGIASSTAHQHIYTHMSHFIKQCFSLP
Assay: Inhibition of recombinant human DPP4 pre-incubated for 30 mins before Gly-Pro-Aminomethylcoumarin substrate addition
parameter-measured: pIC50
Quick note: pIC50 values are minus log10 of concentrations in mol/L.

Entry CC(C)=CCn1c(N2CCCC(N)C2)nc2c1c(=O)n(Cc1ccccc1C#N)c(=O)n2C (stereo unspecified) has what pIC50?
7.71

---

Target: Dipeptidyl peptidase 4 (Homo sapiens, UniProt P27487)
Assay: Inhibition of DPP4 (unknown origin) using Gly-Pro-pNA as substrate after 60 mins
Peptide text beside a SMILES is read from it.
parameter-measured: IC50 (µM)
I only need the number, in µM, no unit after it.

Entry CC(C)[C@H](N)C(=O)N[C@@H](Cc1c[nH]c2ccccc12)C(=O)O [VALYLTRYPTOPHAN] (H-Val-Trp-OH) has what IC50?
65.7

---

Target: Dipeptidyl peptidase 4 (Homo sapiens, UniProt P27487)
Experiment: Inhibition of recombinant human DPP4 using H-Gly-Pro-AMC as substrate preincubated for 15 mins followed by substrate addition measured for 20 mins with 1 min interval
parameter-measured: IC50 (nM)

(P) O=C(N/N=C/c1c(O)ccc2ccccc12)c1n[nH]c2c1CCCC2
(Q) O=C(N/N=C/c1cccc2ccccc12)c1[nH]nc2c1CCCC2
Kindly compare P with Q and tell me which has the lower IC50 figure. State the label of the item chosen.
P

---

Target: Dipeptidyl peptidase 4 (Homo sapiens, UniProt P27487)
Assay: Inhibition of recombinant human DPP4 using H-Gly-Pro-AMC as substrate after 30 mins by fluorometric analysis
parameter-measured: pIC50
Quick note: pIC50 values are minus log10 of concentrations in mol/L.

I'm curious: which pIC50 was measured for O=C(CNC(=O)C1CCCN(S(=O)(=O)c2ccccc2)C1)Nc1ccc(Cl)cc1 (stereo unspecified) tested on Dipeptidyl peptidase 4 (Homo sapiens, UniProt P27487)?
7.02

---

Assay: Elimination half life in human
Details: in vivo
parameter-measured: half-life

# example entries with known answers
{"smiles-input": "Cc1cc2ncc(C(=O)NCC(C)(C)NCC(=O)N3CCC[C@H]3C#N)cn2n1", "half-life": "348 to 372 min"}
{"smiles-input": "Cn1c(=O)cc(N2CCC[C@@H](N)C2)n(Cc2cc(F)ccc2C#N)c1=O", "half-life": "2310 to 3260 min"}

Entry Cc1cc(N2CCN([C@@H]3CN[C@H](C(=O)N4CCSC4)C3)CC2)n(-c2ccccc2)n1 has what half-life?
1610 min

Entry N[C@@H](CC(=O)N1CCn2c(nnc2C(F)(F)F)C1)Cc1cc(F)c(F)cc1F has what half-life?
480 to 1440 min

Entry CC1(C)CCC(=O)N(C[C@@H](N)CC(=O)N2CCc3c(nc(C(F)(F)F)nc3C(F)(F)F)C2)C1 has what half-life?
1000 to 1280 min

Entry O=C([C@@H]1C[C@H](N2CCN(c3ncccn3)CC2)CN1)N1CCC(F)(F)C1 has what half-life?
3810 min

Entry CC#CCn1c(N2CCC[C@@H](N)C2)nc2c1c(=O)n(Cc1nc(C)c3ccccc3n1)c(=O)n2C has what half-life?
600 to 2400 min

Entry Cn1c(=O)cc(N2CCC[C@@H](N)C2)n(Cc2ccccc2C#N)c1=O has what half-life?
1270 min
